Origin of measurements: patent US20240391931A1

As a worked illustration, we turn to IC50 data collected for EGFR WT (Homo sapiens).

Incoming: Let me know recorded IC50 for "Cc1ccc(Oc2ccc(Nc3ncnc4sc5c(c34)CCN(C(=O)/C=C/CNCCO)C5)cc2C)cn1" , thanks.
Outgoing: 1 to 10 µM

Incoming: Let me know recorded IC50 for Cc1ccc(Oc2ccc(Nc3ncnc4sc5c(c34)C[C@@H](C)N(C(=O)/C=C/CN(C)C)[C@H]5C)cc2C)cn1 (racemic) , thanks.
Outgoing: > 10 µM

Incoming: Let me know recorded IC50 for "Cc1cc(Nc2ncnc3sc4c(c23)CCN(C(=O)/C=C/CN2CC(C)(C)OC(C)(C)C2)C4)ccc1Oc1ccc2ncnn2c1" , thanks.
Outgoing: > 10 µM

Incoming: Let me know recorded IC50 for Cc1ccc(Oc2ccc(Nc3ncnc4sc5c(c34)CCN(C(=O)/C=C/CN3CCCCC3(C)CO)C5)cc2C)cn1 (centres unmarked) , thanks.
Outgoing: > 10 µM

Incoming: Let me know recorded IC50 for "Cc1ccc(Oc2ccc(Nc3ncnc4sc5c(c34)CCN(C(=O)/C=C/CN3CCOC[C@@H]3C)C5)cc2C)cn1" , thanks.
Outgoing: > 10 µM

Incoming: Let me know recorded IC50 for "Cc1cc(Nc2ncnc3sc4c(c23)CCN(C(=O)/C=C/CN(C)C)C4)ccc1Oc1ccc2scnc2c1" , thanks.
Outgoing: 1 to 10 µM

Incoming: Let me know recorded IC50 for "Cc1ccc(Oc2ccc(Nc3ncnc4sc5c(c34)CCN(C(=O)/C=C/CN3CCO[C@H](CO)C3)C5)cc2C)cn1" , thanks.
Outgoing: > 10 µM

Incoming: Let me know recorded IC50 for "Cc1ccc(Oc2ccc(Nc3ncnc4sc5c(c34)CCN(C(=O)/C=C/CN3CCCC34CCC4)C5)cc2C)cn1" , thanks.
Outgoing: > 10 µM
